Tested on: Acinetobacter baumannii
Assay: MIC, compound in combination with a second agent (broth microdilution)
Assay type: cell-based
Conditions: 1:1 (wt:wt) combination with Rifampicin; MIC = total drug concentration; strain CCUG57249
Procedure: To evaluate the potency and spectrum of the compounds both alone and in combination with another agent, susceptibility testing was performed against up to four strains of each of the four Gram negative pathogens, Escherichia coli, Pseudomonas aeruginosa, Klebsiella pneumoniae and Acinetobacter baumannii. Ratios of components in a combination, such as 1:1, refers to a weight to weight ratio. […]
Where a name gives a salt, the structure may show the parent alone. Bridge positions count the residues as written; N and C are the ends. Square brackets hold non-standard residues; d marks the D form. Peptide text beside a SMILES is read from it. * marks the point of attachment. ξ: configuration not given here. ξβ3hGly(cHex) = NC(CC(=O)*)C1CCCCC1; X12 = CC(C)C[C@H](N)[C@H](O)C(=O)*; Thr(3ξ) = CC(O)[C@H](N)C(=O)O; Dab = NCC[C@H](N)C(=O)O; Dap = NC[C@H](N)C(=O)O; X4 = NC1CCCC1C(=O)*
MEASUREMENT TYPE: MIC A. baumannii CCUG57249

Hello, please tell me recorded MIC A. baumannii CCUG57249 for this one: CC(C)C[C@@H]1NC(=O)[C@@H](Cc2ccccc2)NC(=O)[C@H](CCN)NC(=O)[C@@H](NC(=O)[C@H](CCN)NC(=O)[C@@H](NC(=O)[C@@H](O)[C@@H](N)CC(C)C)C(C)O)CCNC(=O)[C@H](C(C)O)NC(=O)[C@H](CCN)NC(=O)[C@H](CCN)NC1=O (stereo partly drawn) [Example 41, trifluoroacetate salt] (X12-[Thr(3ξ)][Dab][Dab][Dab][dF]L[Dab][Dab][Thr(3ξ)]; lactam 3-C)
≤0.06 micrograms/mL

Hello, please tell me recorded MIC A. baumannii CCUG57249 for this one: CC(C)C[C@@H]1NC(=O)[C@@H](Cc2ccccc2)NC(=O)[C@H](CCN)NC(=O)[C@@H](NC(=O)[C@H](CN)NC(=O)[C@@H](NC(=O)C2CCCC2N)C(C)O)CCNC(=O)[C@H](C(C)O)NC(=O)[C@H](CCN)NC(=O)[C@H](CCN)NC1=O (stereo partly drawn) [Example 43, TFA salt] (X4-[Thr(3ξ)][Dap][Dab][Dab][dF]L[Dab][Dab][Thr(3ξ)]; lactam 3-C)
≤0.06 micrograms/mL

Hello, please tell me recorded MIC A. baumannii CCUG57249 for this one: CC(C)C[C@@H]1NC(=O)[C@@H](Cc2ccccc2)NC(=O)[C@H](CCN)NC(=O)[C@@H](NC(=O)[C@H](CCN)NC(=O)[C@@H](NC(=O)CC(N)C2CCCCC2)C(C)O)CCNC(=O)[C@H](C(C)O)NC(=O)[C@H](CCN)NC(=O)[C@H](CCN)NC1=O (stereo partly drawn) [Example 10] ({ξβ3hGly(cHex)}-[Thr(3ξ)][Dab][Dab][Dab][dF]L[Dab][Dab][Thr(3ξ)]; lactam 3-C)
0.125 micrograms/mL

The reported measurements were obtained from patent US10407467B2.
